- Species: Homo sapiens
- assay procedure: Inhibition of human recombinant DNA topoisomerase 2 assessed as reduction in enzyme-mediated relaxation of supercoiled pBR322 plasmid DNA at 20 uM in presence of 0.1% BSA by ethidium bromide staining based gel electrophoresis and UV spectroscopy relative to etoposide
measured quantity: fold change (FC)

In the examples that follow, each entry is paired with its recorded fold change (FC).
smiles input | fold change (FC)
Clc1ccc(-c2cc(-c3ccoc3)c3oc4ccccc4c3n2)cc1 | 2.61
Clc1cccc(-c2cc(-c3ccoc3)c3oc4ccccc4c3n2)c1 | 1.6
Clc1cccc(-c2cc(-c3ccc(Cl)o3)c3oc4ccccc4c3n2)c1 | 1.13
Clc1ccc(-c2cc(-c3ccccc3)c3oc4ccccc4c3n2)cc1 | 0.48
Clc1ccccc1-c1cc(-c2ccco2)c2oc3ccccc3c2n1 | 0.14
Clc1ccc(-c2cc(-c3ccsc3)c3oc4ccccc4c3n2)cc1 | 0.32

(A) Clc1cccc(-c2cc(-c3ccccc3)c3oc4ccccc4c3n2)c1
(B) Clc1ccccc1-c1cc(-c2ccccc2)c2oc3ccccc3c2n1
(C) Clc1ccc(-c2cc(-c3ccccc3Cl)nc3c2oc2ccccc23)o1
(D) Clc1ccc(-c2cc(-c3ccco3)c3oc4ccccc4c3n2)cc1
Order the entries by their reported fold change (FC), beginning at the minimum. Reply format: the labels, ordered as requested.
B, A, C, D
(B: 0.19, A: 0.4, C: 0.94, D: 2.2)

---

- Organism: Homo sapiens
- assay procedure: Inhibition of human recombinant DNA topoisomerase 2 assessed as reduction in enzyme-mediated relaxation of supercoiled pBR322 plasmid DNA at 100 uM in presence of 0.1% BSA by ethidium bromide staining based gel electrophoresis and UV spectroscopy
measured quantity: inhibition (%)

smiles input | inhibition, %
Clc1cccc(-c2cc(-c3ccoc3)c3oc4ccccc4c3n2)c1 | 86.1
Clc1cccc(-c2cc(-c3ccco3)c3oc4ccccc4c3n2)c1 | 85.5
Clc1cccc(-c2cc(-c3ccc(Cl)o3)c3oc4ccccc4c3n2)c1 | 97.3
Clc1cccc(-c2cc(-c3ccsc3)c3oc4ccccc4c3n2)c1 | 93.8

---

- Species: Homo sapiens
- assay procedure: Inhibition of human recombinant DNA topoisomerase 2 assessed as reduction in enzyme-mediated relaxation of supercoiled pBR322 plasmid DNA at 100 uM in presence of 0.1% BSA by ethidium bromide staining based gel electrophoresis and UV spectroscopy
measured quantity: inhibition (%)

smiles input | readout value
Clc1cccc(-c2cc(-c3cccs3)c3oc4ccccc4c3n2)c1 | 85.3
Clc1ccc(-c2cc(-c3ccc(Cl)o3)c3oc4ccccc4c3n2)cc1 | 100
Clc1ccc(-c2cc(-c3ccoc3)c3oc4ccccc4c3n2)cc1 | 88.7
Clc1cccc(-c2cc(-c3ccccc3)c3oc4ccccc4c3n2)c1 | 83
Clc1ccccc1-c1cc(-c2ccccc2)c2oc3ccccc3c2n1 | 58.2
Clc1ccc(-c2cc(-c3cccs3)c3oc4ccccc4c3n2)cc1 | 58.5
Clc1ccccc1-c1cc(-c2ccoc2)c2oc3ccccc3c2n1 | 83.2
Clc1ccc(-c2cc(-c3ccco3)c3oc4ccccc4c3n2)cc1 | 96.2
Clc1ccc(-c2cc(-c3ccsc3)c3oc4ccccc4c3n2)cc1 | 95.7
Clc1ccc(-c2cc(-c3ccccc3Cl)nc3c2oc2ccccc23)o1 | 86
Clc1ccc(-c2cc(-c3ccccc3)c3oc4ccccc4c3n2)cc1 | 78.2

---

- Species on record: Homo sapiens
- assay procedure: Inhibition of human recombinant DNA topoisomerase 2 assessed as reduction in enzyme-mediated relaxation of supercoiled pBR322 plasmid DNA at 20 uM in presence of 0.1% BSA by ethidium bromide staining based gel electrophoresis and UV spectroscopy
measured quantity: inhibition (%)

In the examples that follow, each entry is paired with its recorded inhibition.
smiles input | measured quantity | readout value
Clc1ccc(-c2cc(-c3ccoc3)c3oc4ccccc4c3n2)cc1 | inhibition | 82.1
Clc1ccccc1-c1cc(-c2ccco2)c2oc3ccccc3c2n1 | inhibition | 5.1
Clc1cccc(-c2cc(-c3cccs3)c3oc4ccccc4c3n2)c1 | inhibition | 17.3
Clc1ccc(-c2cc(-c3ccccc3)c3oc4ccccc4c3n2)cc1 | inhibition | 17.6
Clc1cccc(-c2cc(-c3ccoc3)c3oc4ccccc4c3n2)c1 | inhibition | 50.4
Clc1ccccc1-c1cc(-c2ccsc2)c2oc3ccccc3c2n1 | inhibition | 85.8

(a) Clc1ccc(-c2cc(-c3ccco3)c3oc4ccccc4c3n2)cc1
(b) Clc1cccc(-c2cc(-c3ccsc3)c3oc4ccccc4c3n2)c1
Kindly compare a with b and tell me which has the lower inhibition figure. Please respond with the label that marks your chosen entry.
b

---

- Organism: Homo sapiens
- assay procedure: Inhibition of human recombinant DNA topoisomerase 2 assessed as reduction in enzyme-mediated relaxation of supercoiled pBR322 plasmid DNA at 20 uM in presence of 0.1% BSA by ethidium bromide staining based gel electrophoresis and UV spectroscopy
measured quantity: inhibition (%)

In the examples that follow, each entry is paired with its recorded inhibition.
smiles input | measured quantity | measure unit | readout value
Clc1cccc(-c2cc(-c3ccc(Cl)o3)c3oc4ccccc4c3n2)c1 | inhibition | % | 35.5
Clc1ccc(-c2cc(-c3ccccc3Cl)nc3c2oc2ccccc23)o1 | inhibition | % | 29.5
Clc1ccccc1-c1cc(-c2ccoc2)c2oc3ccccc3c2n1 | inhibition | % | 14.6
Clc1ccccc1-c1cc(-c2cccs2)c2oc3ccccc3c2n1 | inhibition | % | 10.8
Clc1cccc(-c2cc(-c3ccccc3)c3oc4ccccc4c3n2)c1 | inhibition | % | 14.8

(a) Clc1cccc(-c2cc(-c3ccco3)c3oc4ccccc4c3n2)c1
(b) Clc1ccc(-c2cc(-c3cccs3)c3oc4ccccc4c3n2)cc1
Kindly compare a with b and tell me which has the lower inhibition figure. Please respond with the label that marks your chosen entry.
b
(b: 15.1%, a: 55.4%)

---

- Organism: Homo sapiens
- assay procedure: Inhibition of human recombinant DNA topoisomerase 2 assessed as reduction in enzyme-mediated relaxation of supercoiled pBR322 plasmid DNA at 100 uM in presence of 0.1% BSA by ethidium bromide staining based gel electrophoresis and UV spectroscopy relative to etoposide
measured quantity: fold change (FC)

In the examples that follow, each entry is paired with its recorded fold change (FC).
smiles input | readout value
Clc1ccc(-c2cc(-c3ccccc3Cl)nc3c2oc2ccccc23)o1 | 1.64
Clc1cccc(-c2cc(-c3cccs3)c3oc4ccccc4c3n2)c1 | 1.29
Clc1ccc(-c2cc(-c3ccsc3)c3oc4ccccc4c3n2)cc1 | 1.83
Clc1ccc(-c2cc(-c3cccs3)c3oc4ccccc4c3n2)cc1 | 0.89

(I) Clc1ccccc1-c1cc(-c2ccccc2)c2oc3ccccc3c2n1
(II) Clc1ccccc1-c1cc(-c2ccsc2)c2oc3ccccc3c2n1
Kindly compare I with II and tell me which has the lower fold change (FC) figure. Please respond with the label that marks your chosen entry.
I

---

- tgt: DNA topoisomerase 1 (Homo sapiens) (UniProt P11387)
- Sequence (P11387 whole entry): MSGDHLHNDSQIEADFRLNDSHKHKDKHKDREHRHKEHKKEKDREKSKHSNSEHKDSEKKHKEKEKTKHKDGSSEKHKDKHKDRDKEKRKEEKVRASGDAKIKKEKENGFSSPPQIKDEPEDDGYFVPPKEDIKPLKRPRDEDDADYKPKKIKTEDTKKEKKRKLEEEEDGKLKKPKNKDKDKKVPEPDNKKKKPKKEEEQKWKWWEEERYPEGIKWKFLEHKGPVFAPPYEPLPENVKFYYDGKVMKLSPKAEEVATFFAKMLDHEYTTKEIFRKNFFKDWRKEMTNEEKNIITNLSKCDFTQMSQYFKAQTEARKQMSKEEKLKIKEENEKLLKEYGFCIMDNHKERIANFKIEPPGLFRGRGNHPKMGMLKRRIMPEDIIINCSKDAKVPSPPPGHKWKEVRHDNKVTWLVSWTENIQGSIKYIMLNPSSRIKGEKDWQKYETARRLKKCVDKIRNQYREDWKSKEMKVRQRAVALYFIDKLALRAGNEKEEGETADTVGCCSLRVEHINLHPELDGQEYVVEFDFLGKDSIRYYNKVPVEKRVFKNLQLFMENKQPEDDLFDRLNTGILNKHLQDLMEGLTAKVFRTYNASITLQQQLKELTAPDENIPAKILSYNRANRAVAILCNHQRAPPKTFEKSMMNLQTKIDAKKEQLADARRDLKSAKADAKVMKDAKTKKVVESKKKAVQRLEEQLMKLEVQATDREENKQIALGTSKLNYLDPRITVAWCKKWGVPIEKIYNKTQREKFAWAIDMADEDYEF
- assay procedure: Inhibition of human recombinant DNA topoisomerase 1 assessed as reduction in enzyme-mediated relaxation of supercoiled pBR322 plasmid DNA at 100 uM in presence of 0.1% BSA by ethidium bromide staining based gel electrophoresis and UV spectroscopy relative to camptothecin
measured quantity: fold change (FC)

In the examples that follow, each entry is paired with its recorded fold change (FC).
smiles input | measured quantity | readout value
Clc1ccc(-c2cc(-c3cccs3)c3oc4ccccc4c3n2)cc1 | fold change (FC) | 1.15
Clc1ccccc1-c1cc(-c2ccsc2)c2oc3ccccc3c2n1 | fold change (FC) | 1.15
Clc1cccc(-c2cc(-c3ccco3)c3oc4ccccc4c3n2)c1 | fold change (FC) | 1.15
Clc1ccc(-c2cc(-c3ccccc3Cl)nc3c2oc2ccccc23)o1 | fold change (FC) | 1.15
Clc1cccc(-c2cc(-c3ccc(Cl)o3)c3oc4ccccc4c3n2)c1 | fold change (FC) | 1.15

(A) Clc1ccc(-c2cc(-c3ccoc3)c3oc4ccccc4c3n2)cc1
(B) Clc1ccccc1-c1cc(-c2ccoc2)c2oc3ccccc3c2n1
Of A and B , which one carries the higher reported fold change (FC)? Please respond with the label that marks your chosen entry.
A
(A: 0.95, B: 0.63)

---

- tgt: DNA topoisomerase 1 (Homo sapiens)
- assay procedure: Inhibition of human recombinant DNA topoisomerase 1 assessed as reduction in enzyme-mediated relaxation of supercoiled pBR322 plasmid DNA at 100 uM in presence of 0.1% BSA by ethidium bromide staining based gel electrophoresis and UV spectroscopy
measured quantity: inhibition (%)

In the examples that follow, each entry is paired with its recorded inhibition.
smiles input | inhibition (%)
Clc1ccccc1-c1cc(-c2ccoc2)c2oc3ccccc3c2n1 | 54.6
Clc1cccc(-c2cc(-c3ccsc3)c3oc4ccccc4c3n2)c1 | 70.2
Clc1cccc(-c2cc(-c3ccoc3)c3oc4ccccc4c3n2)c1 | 84.3
Clc1ccccc1-c1cc(-c2cccs2)c2oc3ccccc3c2n1 | 93.4
Clc1ccccc1-c1cc(-c2ccsc2)c2oc3ccccc3c2n1 | 100
Clc1cccc(-c2cc(-c3cccs3)c3oc4ccccc4c3n2)c1 | 85.1
Clc1ccc(-c2cc(-c3ccoc3)c3oc4ccccc4c3n2)cc1 | 86.5
Clc1ccc(-c2cc(-c3ccsc3)c3oc4ccccc4c3n2)cc1 | 79.9
Clc1ccc(-c2cc(-c3ccc(Cl)o3)c3oc4ccccc4c3n2)cc1 | 98.9
Clc1ccc(-c2cc(-c3ccccc3)c3oc4ccccc4c3n2)cc1 | 100

(I) Clc1ccc(-c2cc(-c3cccs3)c3oc4ccccc4c3n2)cc1
(II) Clc1ccccc1-c1cc(-c2ccccc2)c2oc3ccccc3c2n1
Of I and II , which one carries the higher reported inhibition? Please respond with the label that marks your chosen entry.
I
(I: 100%, II: 33%)
